target: Fuc(a1-2)Gal(b1-3)GlcNAc(b1-2)Man(a1-3)[Fuc(a1-2)Gal(b1-3)GlcNAc(b1-2)Man(a1-6)]Man(b1-4)GlcNAc(b1-4)GlcNAc; assay: glycan array binding signal (z-score within array); higher = stronger binding; settings: glycan notation: IUPAC condensed, linker removed
Many of the other results were omitted from the sample, so the strongest signals are more common in it than they were.
Provide the reported glycan array binding signal (z-score) of each item.
// return just the number, without any unit appended

Req: Look up glycan array binding signal (z-score): DCL-1 (Homo sapiens), Q8IX05 (protein) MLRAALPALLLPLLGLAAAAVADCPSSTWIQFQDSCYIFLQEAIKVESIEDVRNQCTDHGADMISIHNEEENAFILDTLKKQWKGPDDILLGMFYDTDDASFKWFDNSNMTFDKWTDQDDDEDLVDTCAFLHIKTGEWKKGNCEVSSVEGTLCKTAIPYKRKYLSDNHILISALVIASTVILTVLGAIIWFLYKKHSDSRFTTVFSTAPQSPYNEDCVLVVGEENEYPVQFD
Resp: 0.687

Req: Quick one: glycan array binding signal (z-score) of LFA (Limax flavus) (protein) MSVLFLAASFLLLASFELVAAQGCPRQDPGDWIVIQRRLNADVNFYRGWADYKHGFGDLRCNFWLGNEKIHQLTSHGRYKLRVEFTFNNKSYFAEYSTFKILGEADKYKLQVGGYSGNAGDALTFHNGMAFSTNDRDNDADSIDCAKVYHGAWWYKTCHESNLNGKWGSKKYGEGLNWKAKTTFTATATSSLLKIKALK ?
Resp: 0.702

Req: Need glycan array binding signal (z-score), item HHL-2 (Homo sapiens), P07307 (protein) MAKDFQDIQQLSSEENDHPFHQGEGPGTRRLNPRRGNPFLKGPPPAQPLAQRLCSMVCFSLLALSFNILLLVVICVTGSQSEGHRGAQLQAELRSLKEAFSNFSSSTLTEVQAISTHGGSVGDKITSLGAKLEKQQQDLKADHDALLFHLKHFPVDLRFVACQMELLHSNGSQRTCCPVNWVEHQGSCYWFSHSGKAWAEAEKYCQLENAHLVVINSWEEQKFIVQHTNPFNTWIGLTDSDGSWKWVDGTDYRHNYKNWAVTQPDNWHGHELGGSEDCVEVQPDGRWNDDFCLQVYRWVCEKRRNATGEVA
Resp: -0.497
